# System: HCC-2998 colon
# assayText: NCI tumour cell line growth inhibition, 48 h
compounds and their reported TGI

Report measured TGI; entry is Clc1ccc2c(Cl)nc(-c3ccccc3)nc2c1 > 100 µM

***
Report measured TGI; entry is O=C(O)c1nc2cc(C(F)(F)F)ccc2[nH]c1=O > 100 µM

Report measured TGI; entry is O=C(c1ccncc1)N1CCN(C2=NS(=O)(=O)c3ccccc3N2c2ccccc2)CC1 37.6 µM

Report measured TGI; entry is COc1ccc(CCN2COc3ccc4ccc(=O)oc4c3C2)cc1OC > 100 µM

====

# Test system: RXF 393 renal
# assayText: NCI tumour cell line growth inhibition, 48 h
outcomeMeasure: TGI (µM)
Provide the reading as a plain figure in µM.

Report measured TGI; entry is COC(=O)c1c2c(cc3c1CC1(C3)Cc3ccc4c(c3C1=O)CCC4)CCC2 (centres undefined) 3.14

Report measured TGI; entry is CCOC1=C2C(C)(CCC3[C@@]4(C)C=CC(=O)C(C)(C)C4CC(O)[C@@]23C)C(c2ccoc2)C1=O (some centres undefined) 34

Report measured TGI; entry is CN1CCc2cc(O)c3cc2C1Cc1ccc(cc1)Oc1cc(ccc1O)CC1c2c(cc4c(c2O3)OCO4)CCN1C (centres undefined) 60.2

Could you now look at the following molecule, please?
Report measured TGI; entry is COc1ccc(C(=O)c2cc(OC)c(OC)c(OC)c2)cc1/C=C/C(=O)c1ccc2c(c1)OCO2 4.21

====

compounds and their reported TGI
# Test system: SK-MEL-5 melanoma
# assayText: NCI tumour cell line growth inhibition, 48 h

Look over these answered cases.
Report measured TGI; entry is CCN1C(=O)C(N=[N+]=[N-])(c2ccccc2)C(=O)c2ccccc21 (stereo unspecified) > 100 µM

Report measured TGI; entry is COCN1C(=O)[C@@H]2CCCN2C(=O)c2cc(Cl)ccc21 > 100 µM

Report measured TGI; entry is CNC(=O)OCc1cc2ccncc2c2c1[nH]c1ccccc12 > 100 µM

Report measured TGI; entry is O=c1[nH]cnc2c1ncn2C1SC(CO)C(O)C1O (stereo unspecified) > 100 µM

Report measured TGI; entry is COc1cc2c(cc1OC)C1(c3ccccc3)ON=C(c3ccccc3)N1CS2 (stereo unspecified) > 100 µM

***
Report measured TGI; entry is ClCCCC1COc2ccccc2O1 (stereo unspecified) > 100 µM

Report measured TGI; entry is Nc1ccc(-c2nc3ccccc3s2)cc1I > 100 µM

Report measured TGI; entry is CCN(CC)c1nc(=O)c(C(=O)C(C)(C)C)c(C(C)(C)C)o1 > 100 µM

Report measured TGI; entry is CSC1CC2C(CC1(C)SC)C2(C)C (stereo unspecified) 78.9 µM

Report measured TGI; entry is CC(=O)OC(C#N)CC(C)(C)/[N+]([O-])=[N+](\[O-])C(C)(C)CC(C#N)OC(C)=O (stereo unspecified) 33.9 µM

Report measured TGI; entry is Cc1ccc(N=Nc2c(C)nn(C(=O)CC(=O)Nc3ccc(Cl)cc3)c2C)cc1C > 100 µM

====

compounds and their reported GI50
# Test system: OVCAR-3 ovarian
# assayText: NCI tumour cell line growth inhibition, 48 h

Report measured GI50; entry is CCCN(CCC)c1ccc(/C=N/NC(=O)c2cccnc2)cc1 20.1 µM

Report measured GI50; entry is C=CCCC(O)c1ccc(CCCCCCCCCCC)o1 (configuration not stated) 16.1 µM

Report measured GI50; entry is COc1cc(/C=N/Nc2ncnc3c2cnn3Cc2ccccc2)ccc1O 6.8 µM

Report measured GI50; entry is CNc1ccc(C(=O)CC(O)CCC(C)C2OC(=O)CC(O)CC(=O)CC(O)CC(O)CC(O)CC(O)CC3(O)CC(O)C(C(=O)NCCc4ccccn4)C(CC(OC4OC(C)C(O)C(N)C4O)/C=C/C=C/C=C/C=C\C=C/C=C/C=C/C2C)O3)cc1 (configuration not stated) 0.643 µM

Report measured GI50; entry is [O]=[W](=[O])([OH])[OH] > 100 µM

Report measured GI50; entry is CN1CCN(CCCOc2ccc3nc(Nc4ccc(C(F)(F)F)c(Cl)c4)ccc3c2)CC1 1.64 µM

Report measured GI50; entry is O=C(c1ccncc1)N1CCN(C2=NS(=O)(=O)c3ccccc3N2c2ccccc2)CC1 32.1 µM

Provenance of the data: PubChem BioAssay (NCI)
